Reference for the values: patent US8148100B2

Below: a set of entries, each annotated with reported 2OG turnover.
# Measured target: Mina53(A26-V465) (Homo sapiens, UniProt Q8IUF8, A386T)
# Construct: A N-terminal truncation of Mina53 A26-V465 cloned into pNIC28-Bsa4 was supplied by the Structural Genomics Consortium Oxford; His-tag (polyhistidine, TEV-cleavable, from pNIC28-Bsa4) (N, cleaved yes); made in house; host or cells: E. coli BL21(DE3)
# Sequence (Q8IUF8 26-465 A386T): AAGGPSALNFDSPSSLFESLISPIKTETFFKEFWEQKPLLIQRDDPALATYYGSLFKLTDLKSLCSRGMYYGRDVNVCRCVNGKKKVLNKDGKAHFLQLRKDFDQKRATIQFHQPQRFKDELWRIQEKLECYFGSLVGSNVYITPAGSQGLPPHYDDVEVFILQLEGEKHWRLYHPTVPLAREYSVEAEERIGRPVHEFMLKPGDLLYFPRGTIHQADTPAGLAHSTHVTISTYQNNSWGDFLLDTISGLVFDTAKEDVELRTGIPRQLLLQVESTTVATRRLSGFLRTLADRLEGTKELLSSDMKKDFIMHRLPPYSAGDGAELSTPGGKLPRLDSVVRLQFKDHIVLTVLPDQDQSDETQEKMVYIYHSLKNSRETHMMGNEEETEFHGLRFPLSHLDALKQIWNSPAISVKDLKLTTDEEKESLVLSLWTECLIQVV
# Measurement description: [14C] labelled 2-OG decarboxylation assay (uncoupled 2-OG turnover, 14CO2 release)
# Assay type: biochemical
# Measurement parameters: truncated Mina53 A26-V465 with Fe(II) and ascorbate; small molecule added at 1 mM; 16 nm 2-OG initially present; 37° C., 20 minutes

Compound	2OG turnover
CCC(=O)C1C(=O)CC(C(=O)O)CC1=O (stereo not shown)	0.17 ± 0.12 nm
O=C(O)C(=O)NC(Cc1ccccc1)C(=O)O (stereo not shown)	3.86 ± 0.05 nm
O=C(O)CNC(=O)C(=O)O	0.47 ± 0.12 nm
O=C(O)CNC(=O)c1nc(Cl)c2ccccc2c1O	3.18 ± 0.03 nm
